Entries and their EC50 values follow.
Tested System: hMC5-R (Homo sapiens, UniProt P33032)
Construct: expressed in transfected cells; host or cells: CHO-K1
Sequence (P33032 whole entry): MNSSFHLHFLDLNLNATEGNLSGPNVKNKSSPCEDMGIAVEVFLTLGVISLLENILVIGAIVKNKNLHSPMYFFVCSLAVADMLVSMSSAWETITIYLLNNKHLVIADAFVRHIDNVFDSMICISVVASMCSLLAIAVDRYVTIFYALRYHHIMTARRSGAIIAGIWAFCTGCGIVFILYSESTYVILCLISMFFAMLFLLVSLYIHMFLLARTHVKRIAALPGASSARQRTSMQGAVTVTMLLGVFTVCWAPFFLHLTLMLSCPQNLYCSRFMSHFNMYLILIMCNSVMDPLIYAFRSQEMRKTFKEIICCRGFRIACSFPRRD
Test Method Notes: cyclic AMP bioassay (ECL) in CHO-K1 cells
Type: cell-based
Condition Info: Table 9A/9B; read-out: EC50 hMC5-R
Bridge positions count the residues as written; N and C are the ends. Square brackets hold non-standard residues; d marks the D form. Peptide text beside a SMILES is read from it. Pen = CC(C)(S)[C@H](N)C(=O)O; Nle = CCCC[C@H](N)C(=O)O; GABA = NCCCC(=O)O
Your answer should be a plain number; it is taken to be in nM.

Compound	EC50 / nM
CCCC[C@H](N)C(=O)N[C@H]1CSSC[C@@H](C(N)=O)NC(=O)CCCNC(=O)[C@H](Cc2c[nH]c3ccccc23)NC(=O)[C@H](CCCNC(=N)N)NC(=O)[C@@H](Cc2ccccc2)NC(=O)[C@H](Cc2c[nH]cn2)NC1=O (H-[Nle]CH[dF]RW[GABA]C-NH2; disulfide 2-8)	1.7
CCCC[C@H](NC(C)=O)C(=O)N[C@H]1CSSC(C)(C)[C@@H](C(N)=O)NC(=O)CCCNC(=O)[C@H](Cc2c[nH]c3ccccc23)NC(=O)[C@H](CCCNC(=N)N)NC(=O)[C@@H](Cc2ccccc2)NC(=O)[C@H](Cc2c[nH]cn2)NC1=O (Ac-[Nle]CH[dF]RW[GABA][Pen]-NH2; disulfide 2-8)	3.9
CCCC[C@H](NC(C)=O)C(=O)N[C@H]1CSSC[C@@H](C(N)=O)NC(=O)[C@H](Cc2c[nH]c3ccccc23)NC(=O)[C@H](CCCNC(=N)N)NC(=O)[C@@H](Cc2ccccc2)NC(=O)[C@H](Cc2c[nH]cn2)NC(=O)[C@@H](CC(C)C)NC1=O	78.5

Look up and report measured EC50 for this entry: "CCCC[C@H](NC(C)=O)C(=O)N[C@H]1CC(=O)NCCCC[C@@H](C(N)=O)NC(=O)CCCNC(=O)[C@H](Cc2c[nH]c3ccccc23)NC(=O)[C@H](CCCNC(=N)N)NC(=O)[C@@H](Cc2ccccc2)NC(=O)[C@H](Cc2c[nH]cn2)NC1=O"
3.48
